# test: Human liver microsomal stability of compound in microsomal protein, PBS buffer pH 7.4, NADPH, glucose-6-phosphate and glucose-6-phosphate dehydrogenase media. Aliquotes were taken at 5 time points and after stopping the reaction, supernatants were analyzed using HPLC coupled with a tandem mass spectrometer. The elimination constant, half-life, and intrinsic clearance are determined as results using linear regression analysis.
# Type: ADME, microsomes, Microsome
# assay_setup: liver microsomes
attribute_measured: half-life

Please review the following examples before continuing.
{"sample_smiles": "COc1cc(C#N)cc([C@H](Nc2ccc3c(c2)CNC3)C(=O)NCC(F)F)c1", "half-life": "> 2.89 h"}
{"sample_smiles": "CNC(=O)[C@H](Nc1cc(CN)cc(C(=O)O)c1)c1cc(Cl)cc(C2CC2)c1", "half-life": "> 2.89 h"}
{"sample_smiles": "O=C(Nc1cc(Cl)cc(C(=O)Nc2cccc(C3CCNCC3)c2)c1)OCc1ccccc1", "half-life": "> 2.89 h"}
{"sample_smiles": "O=C1Cc2c(cc(F)cc2C(=O)Nc2ccc3c(c2)CNC3)N1", "half-life": "> 2.89 h"}
{"sample_smiles": "O=C(NCC(F)F)[C@H](Nc1cnc2c(c1)CNC2)c1cc(Cl)cc(C2CC2)c1", "half-life": "> 2.89 h"}
{"sample_smiles": "O=C(Nc1ccc2c(c1)CNC2)c1cc(F)cc2[nH]ncc12", "half-life": "> 2.89 h"}
{"sample_smiles": "COc1cc(-c2cc(NC(=O)c3cc(F)cc4[nH]ncc34)cc3c2CNC3)ccn1", "half-life": "> 2.89 h"}
{"sample_smiles": "CC(C)NC(=O)[C@H](Nc1ccc2c(c1)CNC2)c1cc(Cl)cc2[nH]ncc12", "half-life": "> 2.89 h"}

# lookup: half-life of O=C(Nc1cc(Cl)cc([C@H](Nc2cccc(-c3nn[nH]n3)c2)C(=O)NCc2ccccc2)c1)OCc1ccccc1
> 2.89 h

# lookup: half-life of N#Cc1cccc(-c2nc3c(C(=O)Nc4ccc5c(c4)CNC5)cc(F)cc3[nH]2)c1
> 2.89 h

# lookup: half-life of COCc1cc(Cl)cc([C@H](Nc2ccc3c(c2)CNC3)C(=O)NCC(F)F)c1
> 2.89 h

# lookup: half-life of COc1ccc(-c2nc3c(C(=O)Nc4ccc5c(c4)CNC5)cc(F)cc3[nH]2)nn1
> 2.89 h

# lookup: half-life of O=C(Nc1cc(Cl)cc([C@H]2CN(Cc3ccccc3)C[C@@H]2c2cccc(-c3nn[nH]n3)c2)c1)OCc1ccccc1
0.601 h

# lookup: half-life of CNC(=O)c1cc(Cl)c(F)cc1NS(=O)(=O)c1ccc(Oc2ccccc2Cl)cc1
0.39 h

# lookup: half-life of O=C(Nc1ccc2c(c1)CNC2)c1cc(F)cc(-c2cn[nH]c2)c1
0.79 h

# lookup: half-life of CNC(=O)[C@H](Nc1ccc2c(c1)CNC2)c1cc(Cl)cc2[nH]c(-c3ccccc3)nc12
> 2.89 h

# lookup: half-life of CSc1cc2c(cc1NC(=O)c1cc(F)cc3[nH]ncc13)CNC2
> 2.89 h

# lookup: half-life of CNC(=O)[C@H](Nc1ccc2c(c1)CNC2)c1cc(Cl)cc(C2CC2)c1
> 2.89 h

* * *

# test: Mouse liver microsomal stability of compound in microsomal protein, PBS buffer pH 7.4, NADPH, glucose-6-phosphate and glucose-6-phosphate dehydrogenase media. Aliquotes were taken at 5 time points and after stopping the reaction, supernatants were analyzed using HPLC coupled with a tandem mass spectrometer. The elimination constant, half-life, and intrinsic clearance are determined as results using linear regression analysis.
# Format: ADME, microsomes, Microsome
# assay_setup: microsomes
attribute_measured: Remaining (without cofactor) (%)

{"sample_smiles": "Cn1cc2c(C(=O)Nc3ccc4c(c3)CNC4)cc(F)cc2n1", "Remaining (without cofactor) [%]": 103.175}
{"sample_smiles": "O=C(Nc1ccc2c(c1)CNC2)c1cc(Cl)cc2ccncc12", "Remaining (without cofactor) [%]": 99.51}
{"sample_smiles": "O=C1Cc2c(cc(F)cc2C(=O)Nc2ccc3c(c2)CNC3)N1", "Remaining (without cofactor) [%]": 93.435}
{"sample_smiles": "O=C(NCC(F)F)[C@H](Nc1cnc2c(c1)CNC2)c1cc(Cl)cc(C2CC2)c1", "Remaining (without cofactor) [%]": 105.088}
{"sample_smiles": "CNC(=O)c1cc(Cl)c(F)cc1NS(=O)(=O)c1ccc(Oc2ccccc2Cl)cc1", "Remaining (without cofactor) [%]": 100.041}
{"sample_smiles": "COc1ccc(-c2nc3c(C(=O)Nc4ccc5c(c4)CNC5)cc(F)cc3[nH]2)nn1", "Remaining (without cofactor) [%]": 92.469}
{"sample_smiles": "COc1cc(Cc2c(-c3ccc(F)cc3)noc2C)nc(N2CCNCC2)n1", "Remaining (without cofactor) [%]": 101}
{"sample_smiles": "O=C(Nc1ccc2c(c1)CNC2)c1cccc2[nH]c(C(F)(F)F)cc12", "Remaining (without cofactor) [%]": 108.523}
{"sample_smiles": "CSc1cc2c(cc1NC(=O)c1cc(F)cc3[nH]ncc13)CNC2", "Remaining (without cofactor) [%]": 93.133}
{"sample_smiles": "Cc1cc([C@H](Nc2ccc3c(c2)CNC3)C(=O)NCC(F)F)cc(C(F)(F)F)c1", "Remaining (without cofactor) [%]": 88.687}
{"sample_smiles": "NCc1cccc(NC(=O)C[C@H](NC(=O)OCc2ccccc2)c2ccc(OCc3ccccc3)c(Br)c2)c1", "Remaining (without cofactor) [%]": 98.077}
{"sample_smiles": "O=C(Nc1cc2c(cc1Br)CNC2)c1cc(F)cc2[nH]ncc12", "Remaining (without cofactor) [%]": 95.151}
{"sample_smiles": "O=C1Cc2c(cccc2C(=O)Nc2ccc3c(c2)CNC3)N1", "Remaining (without cofactor) [%]": 103.618}
{"sample_smiles": "O=C(Nc1ccc2c(c1)CNC2)c1cc(Cl)cc2c1cnn2C1CCC1", "Remaining (without cofactor) [%]": 96.092}
{"sample_smiles": "NCc1cccc(CNC(=O)[C@@H](NC(=O)OCc2ccccc2)c2ccc(OCc3ccccc3)cc2)c1", "Remaining (without cofactor) [%]": 96.808}
{"sample_smiles": "O=C(NCCCF)[C@H](Nc1ccc2c(c1)CNC2)c1cc(Cl)cc(C2CC2)c1", "Remaining (without cofactor) [%]": 97.886}
{"sample_smiles": "O=C(Nc1ccc2c(c1)CNC2)c1cc(F)cc2[nH]ncc12", "Remaining (without cofactor) [%]": 103.462}
{"sample_smiles": "Cn1c(=O)[nH]c2c(C(=O)Nc3ccc4c(c3)CNC4)cc(Br)cc21", "Remaining (without cofactor) [%]": 113.254}
{"sample_smiles": "CCCC[C@@H](NC(=O)OC(C)(C)C)C(=O)N[C@@H](C(=O)NCc1ccc(CN)cc1)c1ccc(OCc2ccccc2)cc1", "Remaining (without cofactor) [%]": 94.521}
{"sample_smiles": "O=C(Nc1cc2c(c(C3=CCOCC3)c1)CNC2)c1cc(F)cc2[nH]ncc12", "Remaining (without cofactor) [%]": 96.063}
{"sample_smiles": "N#CCCNC(=O)[C@H](Nc1ccc2c(c1)CNC2)c1cc(Cl)cc(C2CC2)c1", "Remaining (without cofactor) [%]": 101.58}
{"sample_smiles": "O=C(Nc1ccc2c(c1)CNC2)c1cc(Br)cc2[nH]c(-c3ccccc3)nc12", "Remaining (without cofactor) [%]": 86.086}
{"sample_smiles": "O=C(NCC(F)F)[C@H](Nc1ccc2c(c1)CNC2)c1cc(Br)cc2nc[nH]c12", "Remaining (without cofactor) [%]": 93.905}
{"sample_smiles": "O=C(Nc1cc2c(cc1C1CC1)CNC2)c1cc(F)cc2[nH]ncc12", "Remaining (without cofactor) [%]": 95.024}
{"sample_smiles": "O=C(O)c1cc(Cl)ccc1NS(=O)(=O)c1ccc(Oc2ccccc2Cl)cc1", "Remaining (without cofactor) [%]": 100.358}
{"sample_smiles": "COc1cc(C#N)cc([C@H](Nc2ccc3c(c2)CNC3)C(=O)NCC(F)F)c1", "Remaining (without cofactor) [%]": 104.77}
{"sample_smiles": "O=C(Nc1cc2c(c(C3=CCS(=O)(=O)CC3)c1)CNC2)c1cc(F)cc2[nH]ncc12", "Remaining (without cofactor) [%]": 113.863}
{"sample_smiles": "COc1cc(Cl)cc([C@H](Nc2ccc3c(c2)CNC3)C(=O)NCC(F)F)c1", "Remaining (without cofactor) [%]": 96.342}
{"sample_smiles": "CC(C)n1cc2c(C(=O)Nc3ccc4c(c3)CNC4)cc(Cl)cc2n1", "Remaining (without cofactor) [%]": 93.513}
{"sample_smiles": "O=C(Nc1ccc2c(c1)CNC2)c1cc(F)cc2c1CCC2", "Remaining (without cofactor) [%]": 103.66}
{"sample_smiles": "NCc1cccc(NC(=O)[C@@H](NC(=O)OCc2ccccc2)c2ccc(OCc3ccccc3)cc2)c1", "Remaining (without cofactor) [%]": 106}
